Tested on: DU-145
PROTOCOL: Cytotoxicity against human DU145 cells after 48 hrs by SRB method
Format: functional, cell-based
CONDITION_INFO: DU-145, 48 h
hey, just use True if measured IC50 is less than 40 µM, otherwise False

A record lists CCc1ccc(-c2nc3ccccc3c3c2[nH]c2ccccc23)cc1 . Is its IC50 below 40 µM? False

Param item: Brc1ccc(-c2nc3ccccc3c3c2[nH]c2ccccc23)cc1 True

Param item: FC(F)(F)c1ccc(-c2nc3ccccc3c3c2[nH]c2ccccc23)cc1 True

Param item: COc1ccc(-c2nc3ccccc3c3c2[nH]c2ccccc23)cc1 False

Param item: CC(C)c1nc2ccccc2c2c1[nH]c1ccccc12 False
